target: SpBzz1-D2; assay: SPOT peptide array binding signal intensity (averaged, normalized) (arbitrary units (background-subtracted, floor 0; scale differs between SH3 domains)); higher = stronger binding of the SH3 domain to the peptide
Kind request: treat 2 as inclusive, so SPOT peptide array binding signal intensity at 2 or higher is T, anything lower is F.

binder=EREKALPPIPFTTTL assigned_label=F
binder=GQYRRTIVIPRRFFT assigned_label=T
binder=LEFRAILFIPKRAPF assigned_label=F
binder=FFRRSELYLPNSSKA assigned_label=F
binder=RKNRAPPQRPRFNRE assigned_label=T
binder=PHNPSPFFPPPDFND assigned_label=F
binder=PSRRDSLSIPRAVDA assigned_label=F
binder=MAMRPIPPLPTESEY assigned_label=T
binder=VYTRTAFQIPGDDKI assigned_label=F
binder=RRRRRPHRIERPLSN assigned_label=F
binder=KKAPPPVVKPKPRNF assigned_label=F
binder=VQPTAAPATPPRHIS assigned_label=F
binder=LTRRFPFLFPFDTRM assigned_label=F
binder=GRSRLFPHSPLGRSS assigned_label=F
